Sourced from ChEMBL document CHEMBL6127024

- Tested on: CT26
- EXPERIMENTAL PROTOCOL: Antiproliferative activity against CT26 cells assessed as reduction in cell viability at 20 uM measured after 48 hrs by CCK-8 method relative to control
- Format: functional, Mus musculus
Would you kindly list Activity for each of these compounds?
Numbers only, in %.

Look over these answered cases.
• O=C(c1cccc2ccccc12)N1CCN(c2ccc([N+](=O)[O-])cc2)CC1 = 72
• O=C(c1cccc2ccccc12)N1CCN(c2ccc(Cl)cc2)CC1 = 3
• C[C@@H]1[C@H](C)N(c2ccccc2)CCN1C(=O)c1cccc2ccccc12 (racemic) = 88
• O=C(OC(C(F)(F)F)C(F)(F)F)N1CCC(C(O)(c2ccc3c(c2)OCO3)c2ccc3c(c2)OCO3)CC1 = 69

Please provide the recorded Activity for O=C(c1cccc2ccccc12)N1CCN(c2ccc(OC(F)(F)F)cc2)CC1 , tested on CT26.
23
